# Test system: Salmonella choleraesuis
# assay-comment: Bacterial panel testing, MIC by broth microdilution
# Format: cell-based
# test-context: 20-24 hours growth
quantity-name: MIC SC

1. OC1C2OC(CNC(=S)Nc3ccccc3)C(OC3OC(CNC(=S)Nc4ccccc4)C(OC4OC(CNC(=S)Nc5ccccc5)C(OC5OC(CNC(=S)Nc6ccccc6)C(OC6OC(CNC(=S)Nc7ccccc7)C(OC7OC(CNC(=S)Nc8ccccc8)C(OC8OC(CNC(=S)Nc9ccccc9)C(O2)C(O)C8O)C(O)C7O)C(O)C6O)C(O)C5O)C(O)C4O)C(O)C3O)C1O (centres unmarked)    >200 µg/mL
2. Cl.Cl.Cl.Cl.Cl.Cl.Cl.N=C(N)NCCCSC[C@H]1O[C@@H]2O[C@H]3[C@H](O)[C@@H](O)[C@@H](O[C@H]4[C@H](O)[C@@H](O)[C@@H](O[C@H]5[C@H](O)[C@@H](O)[C@@H](O[C@H]6[C@H](O)[C@@H](O)[C@@H](O[C@H]7[C@H](O)[C@@H](O)[C@@H](O[C@H]8[C@H](O)[C@@H](O)[C@@H](O[C@H]1[C@H](O)[C@H]2O)O[C@@H]8CSCCCNC(=N)N)O[C@@H]7CSCCCNC(=N)N)O[C@@H]6CSCCCNC(=N)N)O[C@@H]5CSCCCNC(=N)N)O[C@@H]4CSCCCNC(=N)N)O[C@@H]3CSCCCNC(=N)N    >200 µg/mL

* * *

# Tested on: Lungs cancer cells A549
# assay-comment: Mammalian cytotoxicity
quantity-name: Mammalian Cytotoxicity IC50 (µg/mL)

1) COc1ccccc1CNCC1OC2OC3C(CNCc4ccccc4OC)OC(OC4C(CNCc5ccccc5OC)OC(OC5C(CNCc6ccccc6OC)OC(OC6C(CNCc7ccccc7OC)OC(OC7C(CNCc8ccccc8OC)OC(OC8C(CNCc9ccccc9OC)OC(OC1C(O)C2O)C(O)C8O)C(O)C7O)C(O)C6O)C(O)C5O)C(O)C4O)C(O)C3O (stereo not shown)    297

* * *

# Tested on: Salmonella choleraesuis
# assay-comment: Bacterial panel testing, MIC by broth microdilution
# Assay type: cell-based
# test-context: 20-24 hours growth
Here the recorded MIC SC is given for each entry.
quantity-name: MIC SC

1) COc1ccc(CNCC2OC3OC4C(CNCc5ccc(OC)cc5)OC(OC5C(CNCc6ccc(OC)cc6)OC(OC6C(CNCc7ccc(OC)cc7)OC(OC7C(CNCc8ccc(OC)cc8)OC(OC8C(CNCc9ccc(OC)cc9)OC(OC9C(CNCc%10ccc(OC)cc%10)OC(OC2C(O)C3O)C(O)C9O)C(O)C8O)C(O)C7O)C(O)C6O)C(O)C5O)C(O)C4O)cc1 (stereo not drawn)    >200 µg/mL
2) Cc1ccc(NCC2OC3OC4C(CNc5ccc(C)cc5)OC(OC5C(CNc6ccc(C)cc6)OC(OC6C(CNc7ccc(C)cc7)OC(OC7C(CNc8ccc(C)cc8)OC(OC8C(CNc9ccc(C)cc9)OC(OC9C(CNc%10ccc(C)cc%10)OC(OC2C(O)C3O)C(O)C9O)C(O)C8O)C(O)C7O)C(O)C6O)C(O)C5O)C(O)C4O)cc1 (stereo not drawn)    >200 µg/mL
3) CCCCCCCCCCCCCCCCNCC1OC2OC3C(CNCCCCCCCCCCCCCCCC)OC(OC4C(CNCCCCCCCCCCCCCCCC)OC(OC5C(CNCCCCCCCCCCCCCCCC)OC(OC6C(CNCCCCCCCCCCCCCCCC)OC(OC7C(CNCCCCCCCCCCCCCCCC)OC(OC8C(CNCCCCCCCCCCCCCCCC)OC(OC1C(O)C2O)C(O)C8O)C(O)C7O)C(O)C6O)C(O)C5O)C(O)C4O)C(O)C3O (stereo not drawn)    >200 µg/mL

* * *

Here the recorded MIC SC is given for each entry.
# Test system: Salmonella choleraesuis
# assay-comment: Bacterial panel testing, MIC by broth microdilution
# Type: cell-based
# test-context: 20-24 hours growth
quantity-name: MIC SC

1. N=C(N)NCCSC[C@H]1O[C@@H]2O[C@H]3[C@H](O)[C@@H](O)[C@@H](O[C@H]4[C@H](O)[C@@H](O)[C@@H](O[C@H]5[C@H](O)[C@@H](O)[C@@H](O[C@H]6[C@H](O)[C@@H](O)[C@@H](O[C@H]7[C@H](O)[C@@H](O)[C@@H](O[C@H]8[C@H](O)[C@@H](O)[C@@H](O[C@H]1[C@H](O)[C@H]2O)O[C@@H]8CSCCNC(=N)N)O[C@@H]7CSCCNC(=N)N)O[C@@H]6CSCCNC(=N)N)O[C@@H]5CSCCNC(=N)N)O[C@@H]4CSCCNC(=N)N)O[C@@H]3CSCCNC(=N)N    >200 mg/L
2. CC(O)C(N)C(=O)NCC1OC2OC3C(CNC(=O)C(N)C(C)O)OC(OC4C(CNC(=O)C(N)C(C)O)OC(OC5C(CNC(=O)C(N)C(C)O)OC(OC6C(CNC(=O)C(N)C(C)O)OC(OC7C(CNC(=O)C(N)C(C)O)OC(OC8C(CNC(=O)C(N)C(C)O)OC(OC1C(O)C2O)C(O)C8O)C(O)C7O)C(O)C6O)C(O)C5O)C(O)C4O)C(O)C3O.Cl.Cl.Cl.Cl.Cl.Cl.Cl (centres unmarked)    >200 mg/L

* * *

# Tested on: Lungs cancer cells A549
# assay-comment: Mammalian cytotoxicity
Here the recorded Mammalian Cytotoxicity IC50 is given for each entry.
quantity-name: Mammalian Cytotoxicity IC50 (µg/mL)

1. COc1cccc(CNCC2OC3OC4C(CNCc5cccc(OC)c5)OC(OC5C(CNCc6cccc(OC)c6)OC(OC6C(CNCc7cccc(OC)c7)OC(OC7C(CNCc8cccc(OC)c8)OC(OC8C(CNCc9cccc(OC)c9)OC(OC9C(CNCc%10cccc(OC)c%10)OC(OC2C(O)C3O)C(O)C9O)C(O)C8O)C(O)C7O)C(O)C6O)C(O)C5O)C(O)C4O)c1 (stereo not drawn)    282
2. NC[C@H]1O[C@@H]2O[C@H]3[C@H](O)[C@@H](O)[C@@H](O[C@H]4[C@H](O)[C@@H](O)[C@@H](O[C@H]5[C@H](O)[C@@H](O)[C@@H](O[C@H]6[C@H](O)[C@@H](O)[C@@H](O[C@H]7[C@H](O)[C@@H](O)[C@@H](O[C@H]8[C@H](O)[C@@H](O)[C@@H](O[C@H]1[C@H](O)[C@H]2O)O[C@@H]8CN)O[C@@H]7CN)O[C@@H]6CN)O[C@@H]5CN)O[C@@H]4CN)O[C@@H]3CN    720
3. NCC(=O)NC[C@H]1O[C@@H]2O[C@H]3[C@H](O)[C@@H](O)[C@@H](O[C@H]4[C@H](O)[C@@H](O)[C@@H](O[C@H]5[C@H](O)[C@@H](O)[C@@H](O[C@H]6[C@H](O)[C@@H](O)[C@@H](O[C@H]7[C@H](O)[C@@H](O)[C@@H](O[C@H]8[C@H](O)[C@@H](O)[C@@H](O[C@H]1[C@H](O)[C@H]2O)O[C@@H]8CNC(=O)CN)O[C@@H]7CNC(=O)CN)O[C@@H]6CNC(=O)CN)O[C@@H]5CNC(=O)CN)O[C@@H]4CNC(=O)CN)O[C@@H]3CNC(=O)CN    690

* * *

# System: Lungs cancer cells A549
# assay-comment: Mammalian cytotoxicity
quantity-name: Mammalian Cytotoxicity IC50 (µg/mL)

1. N=C(N)NCCSC[C@H]1O[C@@H]2O[C@H]3[C@H](O)[C@@H](O)[C@@H](O[C@H]4[C@H](O)[C@@H](O)[C@@H](O[C@H]5[C@H](O)[C@@H](O)[C@@H](O[C@H]6[C@H](O)[C@@H](O)[C@@H](O[C@H]7[C@H](O)[C@@H](O)[C@@H](O[C@H]8[C@H](O)[C@@H](O)[C@@H](O[C@H]1[C@H](O)[C@H]2O)O[C@@H]8CSCCNC(=N)N)O[C@@H]7CSCCNC(=N)N)O[C@@H]6CSCCNC(=N)N)O[C@@H]5CSCCNC(=N)N)O[C@@H]4CSCCNC(=N)N)O[C@@H]3CSCCNC(=N)N    510

* * *

Here the recorded Mammalian Cytotoxicity IC50 is given for each entry.
# System: Lungs cancer cells A549
# assay-comment: Mammalian cytotoxicity
quantity-name: Mammalian Cytotoxicity IC50 (mg/L)

1) CCCCCCCCNC[C@H]1O[C@@H]2O[C@H]3[C@H](O)[C@@H](O)[C@@H](O[C@H]4[C@H](O)[C@@H](O)[C@@H](O[C@H]5[C@H](O)[C@@H](O)[C@@H](O[C@H]6[C@H](O)[C@@H](O)[C@@H](O[C@H]7[C@H](O)[C@@H](O)[C@@H](O[C@H]8[C@H](O)[C@@H](O)[C@@H](O[C@H]1[C@H](O)[C@H]2O)O[C@@H]8CNCCCCCCCC)O[C@@H]7CNCCCCCCCC)O[C@@H]6CNCCCCCCCC)O[C@@H]5CNCCCCCCCC)O[C@@H]4CNCCCCCCCC)O[C@@H]3CNCCCCCCCC    123
2) Cl.Cl.Cl.Cl.Cl.Cl.NCC1OC2OC3C(CN)OC(OC4C(CN)OC(OC5C(CN)OC(OC6C(CN)OC(OC7C(CN)OC(OC1C(O)C2O)C(O)C7O)C(O)C6O)C(O)C5O)C(O)C4O)C(O)C3O (stereo not shown)    109.3
3) Cc1ccc(CNCC2OC3OC4C(CNCc5ccc(C)cc5)OC(OC5C(CNCc6ccc(C)cc6)OC(OC6C(CNCc7ccc(C)cc7)OC(OC7C(CNCc8ccc(C)cc8)OC(OC8C(CNCc9ccc(C)cc9)OC(OC9C(CNCc%10ccc(C)cc%10)OC(OC2C(O)C3O)C(O)C9O)C(O)C8O)C(O)C7O)C(O)C6O)C(O)C5O)C(O)C4O)cc1 (stereo not shown)    376
4) Cl.Cl.Cl.Cl.Cl.Cl.Cl.NCc1cccc(CSCC2OC3OC4C(CSCc5cccc(CN)c5)OC(OC5C(CSCc6cccc(CN)c6)OC(OC6C(CSCc7cccc(CN)c7)OC(OC7C(CSCc8cccc(CN)c8)OC(OC8C(CSCc9cccc(CN)c9)OC(OC9C(CSCc%10cccc(CN)c%10)OC(OC2C(O)C3O)C(O)C9O)C(O)C8O)C(O)C7O)C(O)C6O)C(O)C5O)C(O)C4O)c1 (stereo not shown)    54.3
